Origin of values: patent US20240000791A1

testSystem: JAK1 (Homo sapiens)
Sequence (P23458 whole entry): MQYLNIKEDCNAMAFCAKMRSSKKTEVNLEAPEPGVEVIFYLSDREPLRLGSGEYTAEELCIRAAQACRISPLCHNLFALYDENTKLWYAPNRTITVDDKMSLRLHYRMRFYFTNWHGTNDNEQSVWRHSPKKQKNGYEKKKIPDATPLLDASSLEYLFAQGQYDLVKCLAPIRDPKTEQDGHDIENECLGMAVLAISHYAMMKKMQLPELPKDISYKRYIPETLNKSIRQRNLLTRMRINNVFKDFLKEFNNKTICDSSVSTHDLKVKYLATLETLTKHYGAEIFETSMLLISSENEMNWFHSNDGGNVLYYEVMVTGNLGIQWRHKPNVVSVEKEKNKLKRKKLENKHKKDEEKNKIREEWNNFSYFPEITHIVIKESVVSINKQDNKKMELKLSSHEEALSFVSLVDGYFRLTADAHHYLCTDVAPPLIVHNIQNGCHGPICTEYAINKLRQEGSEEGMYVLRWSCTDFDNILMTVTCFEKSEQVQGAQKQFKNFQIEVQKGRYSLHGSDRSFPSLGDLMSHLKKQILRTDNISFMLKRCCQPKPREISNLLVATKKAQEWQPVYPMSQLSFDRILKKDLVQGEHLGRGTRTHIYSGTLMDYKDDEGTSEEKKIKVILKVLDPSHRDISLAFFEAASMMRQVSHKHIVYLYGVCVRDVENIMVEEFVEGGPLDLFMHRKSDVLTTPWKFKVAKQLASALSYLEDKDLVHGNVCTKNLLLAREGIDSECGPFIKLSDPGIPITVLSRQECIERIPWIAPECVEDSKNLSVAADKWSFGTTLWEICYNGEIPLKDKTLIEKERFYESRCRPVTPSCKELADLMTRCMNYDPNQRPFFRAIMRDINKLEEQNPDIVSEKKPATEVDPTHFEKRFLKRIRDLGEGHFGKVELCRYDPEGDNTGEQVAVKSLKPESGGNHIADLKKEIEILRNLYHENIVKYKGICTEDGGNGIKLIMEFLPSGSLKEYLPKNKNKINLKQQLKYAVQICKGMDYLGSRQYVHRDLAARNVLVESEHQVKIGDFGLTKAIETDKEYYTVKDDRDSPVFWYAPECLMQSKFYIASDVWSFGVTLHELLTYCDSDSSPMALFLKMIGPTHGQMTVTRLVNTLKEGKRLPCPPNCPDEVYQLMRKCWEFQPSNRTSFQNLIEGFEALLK
assayText: Kinase inhibition
Type: biochemical
measurementKind: IC50

Looking up COCc1ccc(NC(=O)c2c(C#CCN3CCOCC3)n(C3(C)CC3)c3ncnc(N)c23)cc1 , I found its IC50 recorded as > 3 µM

###

testSystem: JAK2 (Homo sapiens, UniProt O60674)
Sequence (O60674 whole entry): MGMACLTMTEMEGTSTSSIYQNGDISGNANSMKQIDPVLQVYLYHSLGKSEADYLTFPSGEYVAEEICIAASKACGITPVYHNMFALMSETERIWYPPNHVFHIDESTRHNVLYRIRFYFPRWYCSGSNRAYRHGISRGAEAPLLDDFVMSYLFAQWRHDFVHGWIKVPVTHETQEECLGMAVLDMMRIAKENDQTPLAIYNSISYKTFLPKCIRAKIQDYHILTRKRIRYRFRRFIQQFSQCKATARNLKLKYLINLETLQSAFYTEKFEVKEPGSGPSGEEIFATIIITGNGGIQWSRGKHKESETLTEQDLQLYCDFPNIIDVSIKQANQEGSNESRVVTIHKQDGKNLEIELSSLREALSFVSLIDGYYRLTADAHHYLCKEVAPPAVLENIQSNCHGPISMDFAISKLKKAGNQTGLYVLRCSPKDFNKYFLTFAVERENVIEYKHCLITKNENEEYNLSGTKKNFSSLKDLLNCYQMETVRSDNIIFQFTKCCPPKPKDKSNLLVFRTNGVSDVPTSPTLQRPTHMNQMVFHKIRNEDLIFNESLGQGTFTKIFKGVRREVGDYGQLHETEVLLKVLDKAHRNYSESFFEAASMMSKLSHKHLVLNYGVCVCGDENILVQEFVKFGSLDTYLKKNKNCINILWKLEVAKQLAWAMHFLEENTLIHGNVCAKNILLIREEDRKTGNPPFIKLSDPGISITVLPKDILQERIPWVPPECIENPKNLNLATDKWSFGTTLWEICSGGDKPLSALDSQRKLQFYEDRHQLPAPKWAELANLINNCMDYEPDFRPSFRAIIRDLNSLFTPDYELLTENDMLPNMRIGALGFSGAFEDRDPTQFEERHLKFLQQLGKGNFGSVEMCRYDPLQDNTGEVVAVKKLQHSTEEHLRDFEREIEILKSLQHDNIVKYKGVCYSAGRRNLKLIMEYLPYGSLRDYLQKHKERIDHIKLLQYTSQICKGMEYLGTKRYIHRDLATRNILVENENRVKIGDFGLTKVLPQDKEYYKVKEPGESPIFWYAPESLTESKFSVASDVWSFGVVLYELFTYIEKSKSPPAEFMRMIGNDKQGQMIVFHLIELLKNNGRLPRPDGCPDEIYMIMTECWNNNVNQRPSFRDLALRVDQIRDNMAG
assayText: Kinase inhibition
Assay type: biochemical
conditionSummary: read-out: IC50 kinase inhibition, JAK2
measurementKind: pIC50
// field semantics: pIC50 = negative decimal log of concentration (mol/L)

Looking up CO[C@]1(C(=O)N[C@@H](C)c2ccc(-n3cc(F)cn3)nc2)CC[C@H](c2nc(C)cc(Nc3cc(C)[nH]n3)n2)CC1 , I found its pIC50 recorded as 8.96
